src = PubChem BioAssay (NCI)

Test system: TK-10 renal
Assay: NCI tumour cell line growth inhibition, 48 h
measure: TGI

molecule="COCOC1CCCC[C@@]1(OCCOCCO[C@@]1(c2ccccc2)CCCC[C@H]1OCOC)c1ccccc1 (stereo partly specified)" reportedvalue="> 100 µM"
molecule=CN1CCCc2nc3ccccc3n2C1 reportedvalue="> 100 µM"
molecule=Clc1[nH]nc2ccccc12 reportedvalue="> 100 µM"

Continue with the molecule presented below.
Fill blank: measured TGI of the molecule C[C@H]1CCC/C=C/[C@@H]2C[C@H](OC3OC(CO)C(O)C(O)C3O)C[C@H]2[C@H](O)/C=C/C(=O)O1 (stereo partly specified) is ____. > 100 µM
